// provenance: PubChem BioAssay AID330

# Tested on: P388 leukemia ip, CD2F1 mice, survival T/C
# Assay name: NCI In Vivo Anticancer Drug Screen. Data for tumor model P388 Leukemia (intraperitoneal) in CD2F1 (CDF1) mice
# Measurement context: endpoint: median survival time; dose: 50.0 mg/kg/injection; schedule: Q01DX005 (ip); vehicle: saline with Tween-80; higher = longer survival
Toxic doses and inconclusive results are not listed.
Property label: T/C

Consider the following illustrative entries.
[
  {
    "Molecule": "C/C=C/C1CC2CC(CC(O)CC)CN2O1 (stereo unspecified)",
    "T/C": "100 % of control"
  },
  {
    "Molecule": "Cn1c2ccccc2c(=S)c2cc(NC(=O)CCCCC(=O)Nc3ccc4c(c3)c(=S)c3ccccc3n4C)ccc21",
    "T/C": "110 % of control"
  },
  {
    "Molecule": "COc1cc(O)c(C(C)c2ccccc2)cc1N=O (stereo unspecified)",
    "T/C": "92 % of control"
  },
  {
    "Molecule": "O=C(CC(c1cccnc1)C(C(=O)c1ccc(Cl)cc1)C(CC(=O)c1ccc(Cl)cc1)c1cccnc1)c1ccc(Cl)cc1 (stereo unspecified)",
    "T/C": "90 % of control"
  },
  {
    "Molecule": "Cc1cc(C)c(C#N)c(OCC2CCCO2)n1 (stereo unspecified)",
    "T/C": "95 % of control"
  }
]

Could you share which T/C value was measured for `CCOC(=O)CC1=CS/C(=C(\C#N)C(=O)OCC)N1c1ccccc1` ?
100 % of control
